Assay info: Human HepG2 cell viability assay in 384 well format
Format: toxicity, cell-based
Design: dose 125 nL, time 70.5 hour; concentration not given beside the values
Test parameters: HepG2 cells, read-out: Inhibition
Reported values of cytotoxicity at 70.5 h for individual entries
Test readout: cytotoxicity at 70.5 h (%)

> print(dat)
                                    compound  quantity.unit  value.measured
 1  CCc1noc(CC)c1CC(=O)N1CCN(C(=O)C2CCCC2)CC1              %           -9.43
 2               COCc1cncc2c1CCN(Cc1cccs1)C2              %            0.63
 3            COCCN1CCN(Cc2ccncc2)c2ncccc2C1              %             -11
 4  CCC[C@H]1CN(S(=O)(=O)c2cc(C)ccc2F)C[C@@H]1N              %          -0.888
 5  CN(Cc1noc(C2CC2)n1)C1CCN(Cc2ccccc2C#N)C1 (configuration not stated)              %            17.8
 6  COCC(=O)N1CCN(C(=O)c2cccs2)[C@@H](C(=O)OC)C1              %              -5
 7  O=C(Nc1ccccc1OC1CCOC1)c1cc[nH]n1 (configuration not stated)              %            16.6
 8  O=C(NCC1CCCO1)c1nc2c(s1)CCCN2CC1CC1 (configuration not stated)              %           -2.36
 9  COC(=O)C(CNC(=O)Nc1cn[nH]c1)Cc1cccc(C)c1 (configuration not stated)              %          -0.383
10  CC(CNC(=O)N1CCS(=O)(=O)CC1)Cc1cccs1 (configuration not stated)              %           -1.72
11  NCC1Cc2cc(-c3cncc(C(=O)N4CCOCC4)n3)cc(Cl)c2O1 (configuration not stated)              %           -4.26
12        CC(C)N1CCC(c2cnc(-c3cncnc3)cn2)CC1              %            21.3
